- Tested on: SN12C (Kidney Carcinoma)
- assay overview: combination Emax (second highest fraction inhibited in the dose matrix, 72 h); higher = more inhibition; extreme values may be limits of the assay
readout type: combination Emax
Lab note: jot the number down without any unit.

Q: combination Emax lookup needed for Cc1nc(Nc2ncc(C(=O)Nc3c(C)cccc3Cl)s2)cc(N2CCN(CCO)CC2)n1 [Dasatinib] + CC(=O)Nc1cccc(-n2c(=O)n(C3CC3)c(=O)c3c(Nc4ccc(I)cc4F)n(C)c(=O)c(C)c32)c1 [Trametinib] (first compound max 2 µM, 7x7, partner max 1 µM) , thanks.
Result: 0.455

Q: combination Emax lookup needed for C[C@@H]1COCCN1c1cc(C2([S@](C)(=N)=O)CC2)nc(-c2ccnc3[nH]ccc23)n1 [AZD6738] + O=C(c1cc(Cc2n[nH]c(=O)c3ccccc23)ccc1F)N1CCN(C(=O)C2CC2)CC1 [Olaparib] (first compound max 10 µM, 7x7, partner max 10 µM) , thanks.
Result: 0.249

Q: combination Emax lookup needed for CN(CCO)CC[C@H](CSc1ccccc1)Nc1ccc(S(=O)(=O)NC(=O)c2ccc(N3CCC([C@@H](O)c4ccccc4-c4ccc(Cl)cc4)CC3)cc2)cc1S(=O)(=O)C(F)(F)F [AZD4320] + C[C@@H]1COCCN1C2=NC(=NC(=C2)C3(CC3)[S@](=N)(=O)C)C4=C5C=CNC5=NC=C4 [AZD6738] (first compound max 1 µM, 7x7, partner max 10 µM) , thanks.
Result: 0.328

Q: combination Emax lookup needed for C[C@@H]1COCCN1c1cc(C2([S@](C)(=N)=O)CC2)nc(-c2ccnc3[nH]ccc23)n1 [AZD6738] + C1CC(C1)(C(=O)[O-])C(=O)[O-].N.N.[Pt+2] [Carboplatin] (first compound max 10 µM, 7x7, partner max 10 µM) , thanks.
Result: 0.222

Q: combination Emax lookup needed for COc1cccc2c1C(=O)c1c(O)c3c(c(O)c1C2=O)C[C@@](O)(C(=O)CO)C[C@@H]3O[C@H]1C[C@H](N)[C@H](O)[C@H](C)O1 [Doxorubicin] + Cc1cc2ncnn2cc1Nc1ncc2c(n1)n(C1CCOCC1)c(=O)n2C [AZD7648] (first compound max 1 µM, 7x7, partner max 10 µM) , thanks.
Result: 0.642

###

- Test system: NCI-H1781 (Lung Adenocarcinoma);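 further: after 72 h of two-drug dosing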
- assay overview: Bliss excess, mean over the matrix (fraction); higher = more synergy
Assign Bliss excess to each entry below.

Q: Bliss excess lookup needed for Cc1cc2ncnn2cc1Nc1ncc2c(n1)n(C1CCOCC1)c(=O)n2C [AZD7648] + CCN(CCO)CCCOc1ccc2c(Nc3cc(CC(=O)Nc4cccc(F)c4)[nH]n3)ncnc2c1 [AZD2811] (first compound max 10 µM, 7x7, partner max 1 µM) , thanks.
Result: 0.0239

Q: Bliss excess lookup needed for C=CCn1c(=O)c2cnc(Nc3ccc(N4CCN(C)CC4)cc3)nc2n1-c1cccc(C(C)(C)O)n1 [AZD1775] + C1CN(CCC1(C(=O)N[C@@H](CCO)C2=CC=C(C=C2)Cl)N)C3=NC=NC4=C3C=CN4 [Capivasertib] (first compound max 3 µM, partner max 3 µM) , thanks.
Result: -0.096

Q: Bliss excess lookup needed for CN(C)CCCOc1ccc(-c2ccc3ncc4c(c3c2)n(C2CCOCC2)c(=O)n4C)cn1 [AZD0156] + C=CCn1c(=O)c2cnc(Nc3ccc(N4CCN(C)CC4)cc3)nc2n1-c1cccc(C(C)(C)O)n1 [AZD1775] (first compound max 1 µM, partner max 1 µM) , thanks.
Result: -0.0014

Q: Bliss excess lookup needed for Cn1cnc2c(F)c(Nc3ccc(Br)cc3Cl)c(C(=O)NOCCO)cc21 [Selumetinib] + CCN(CCO)CCCOc1ccc2c(Nc3cc(CC(=O)Nc4cccc(F)c4)[nH]n3)ncnc2c1 [AZD2811] (first compound max 10 µM, 7x7, partner max 1 µM) , thanks.
Result: 0.0045

Q: Bliss excess lookup needed for CC1(C)CCC(CN2CCN(c3ccc(C(=O)NS(=O)(=O)c4ccc(NCC5CCOCC5)c([N+](=O)[O-])c4)c(Oc4cnc5[nH]ccc5c4)c3)CC2)=C(c2ccc(Cl)cc2)C1 [Venetoclax] + CCN(CCO)CCCOc1ccc2c(Nc3cc(CC(=O)Nc4cccc(F)c4)[nH]n3)ncnc2c1 [AZD2811] (first compound max 1 µM, 7x7, partner max 1 µM) , thanks.
Result: 0.0061

Q: Bliss excess lookup needed for CN(CCO)CC[C@H](CSc1ccccc1)Nc1ccc(S(=O)(=O)NC(=O)c2ccc(N3CCC([C@@H](O)c4ccccc4-c4ccc(Cl)cc4)CC3)cc2)cc1S(=O)(=O)C(F)(F)F [AZD4320] + Cn1cnc2c(F)c(Nc3ccc(Br)cc3Cl)c(C(=O)NOCCO)cc21 [Selumetinib] (first compound max 1 µM, 7x7, partner max 3 µM) , thanks.
Result: 0.0131

Q: Bliss excess lookup needed for CN(CCO)CC[C@H](CSc1ccccc1)Nc1ccc(S(=O)(=O)NC(=O)c2ccc(N3CCC([C@@H](O)c4ccccc4-c4ccc(Cl)cc4)CC3)cc2)cc1S(=O)(=O)C(F)(F)F [AZD4320] + C=CCn1c(=O)c2cnc(Nc3ccc(N4CCN(C)CC4)cc3)nc2n1-c1cccc(C(C)(C)O)n1 [AZD1775] (first compound max 1 µM, partner max 1 µM) , thanks.
Result: -0.003

Q: Bliss excess lookup needed for CCN(CCO)CCCOc1ccc2c(Nc3cc(CC(=O)Nc4cccc(F)c4)[nH]n3)ncnc2c1 [AZD2811] + C[C@@H]1COCCN1C2=NC(=NC(=C2)C3(CC3)[S@](=N)(=O)C)C4=C5C=CNC5=NC=C4 [AZD6738] (first compound max 1 µM, 7x7, partner max 10 µM) , thanks.
Result: 0.0216

Q: Bliss excess lookup needed for Cc1cc2ncnn2cc1Nc1ncc2c(n1)n(C1CCOCC1)c(=O)n2C [AZD7648] + C[C@@H]1COCCN1C2=NC(=NC(=C2)C3(CC3)[S@](=N)(=O)C)C4=C5C=CNC5=NC=C4 [AZD6738] (first compound max 10 µM, 7x7, partner max 10 µM) , thanks.
Result: 0.103

Q: Bliss excess lookup needed for Cn1cnc2c(F)c(Nc3ccc(Br)cc3Cl)c(C(=O)NOCCO)cc21 [Selumetinib] + C[C@@H]1COCCN1C2=NC(=NC(=C2)C3(CC3)[S@](=N)(=O)C)C4=C5C=CNC5=NC=C4 [AZD6738] (first compound max 10 µM, 7x7, partner max 10 µM) , thanks.
Result: -0.0397
